Where do these numbers come from? They come from PubChem BioAssay.

Target: Neurogenic locus notch homolog protein 2 (Homo sapiens) (UniProt Q04721)
Sequence (Q04721 whole entry, looked up): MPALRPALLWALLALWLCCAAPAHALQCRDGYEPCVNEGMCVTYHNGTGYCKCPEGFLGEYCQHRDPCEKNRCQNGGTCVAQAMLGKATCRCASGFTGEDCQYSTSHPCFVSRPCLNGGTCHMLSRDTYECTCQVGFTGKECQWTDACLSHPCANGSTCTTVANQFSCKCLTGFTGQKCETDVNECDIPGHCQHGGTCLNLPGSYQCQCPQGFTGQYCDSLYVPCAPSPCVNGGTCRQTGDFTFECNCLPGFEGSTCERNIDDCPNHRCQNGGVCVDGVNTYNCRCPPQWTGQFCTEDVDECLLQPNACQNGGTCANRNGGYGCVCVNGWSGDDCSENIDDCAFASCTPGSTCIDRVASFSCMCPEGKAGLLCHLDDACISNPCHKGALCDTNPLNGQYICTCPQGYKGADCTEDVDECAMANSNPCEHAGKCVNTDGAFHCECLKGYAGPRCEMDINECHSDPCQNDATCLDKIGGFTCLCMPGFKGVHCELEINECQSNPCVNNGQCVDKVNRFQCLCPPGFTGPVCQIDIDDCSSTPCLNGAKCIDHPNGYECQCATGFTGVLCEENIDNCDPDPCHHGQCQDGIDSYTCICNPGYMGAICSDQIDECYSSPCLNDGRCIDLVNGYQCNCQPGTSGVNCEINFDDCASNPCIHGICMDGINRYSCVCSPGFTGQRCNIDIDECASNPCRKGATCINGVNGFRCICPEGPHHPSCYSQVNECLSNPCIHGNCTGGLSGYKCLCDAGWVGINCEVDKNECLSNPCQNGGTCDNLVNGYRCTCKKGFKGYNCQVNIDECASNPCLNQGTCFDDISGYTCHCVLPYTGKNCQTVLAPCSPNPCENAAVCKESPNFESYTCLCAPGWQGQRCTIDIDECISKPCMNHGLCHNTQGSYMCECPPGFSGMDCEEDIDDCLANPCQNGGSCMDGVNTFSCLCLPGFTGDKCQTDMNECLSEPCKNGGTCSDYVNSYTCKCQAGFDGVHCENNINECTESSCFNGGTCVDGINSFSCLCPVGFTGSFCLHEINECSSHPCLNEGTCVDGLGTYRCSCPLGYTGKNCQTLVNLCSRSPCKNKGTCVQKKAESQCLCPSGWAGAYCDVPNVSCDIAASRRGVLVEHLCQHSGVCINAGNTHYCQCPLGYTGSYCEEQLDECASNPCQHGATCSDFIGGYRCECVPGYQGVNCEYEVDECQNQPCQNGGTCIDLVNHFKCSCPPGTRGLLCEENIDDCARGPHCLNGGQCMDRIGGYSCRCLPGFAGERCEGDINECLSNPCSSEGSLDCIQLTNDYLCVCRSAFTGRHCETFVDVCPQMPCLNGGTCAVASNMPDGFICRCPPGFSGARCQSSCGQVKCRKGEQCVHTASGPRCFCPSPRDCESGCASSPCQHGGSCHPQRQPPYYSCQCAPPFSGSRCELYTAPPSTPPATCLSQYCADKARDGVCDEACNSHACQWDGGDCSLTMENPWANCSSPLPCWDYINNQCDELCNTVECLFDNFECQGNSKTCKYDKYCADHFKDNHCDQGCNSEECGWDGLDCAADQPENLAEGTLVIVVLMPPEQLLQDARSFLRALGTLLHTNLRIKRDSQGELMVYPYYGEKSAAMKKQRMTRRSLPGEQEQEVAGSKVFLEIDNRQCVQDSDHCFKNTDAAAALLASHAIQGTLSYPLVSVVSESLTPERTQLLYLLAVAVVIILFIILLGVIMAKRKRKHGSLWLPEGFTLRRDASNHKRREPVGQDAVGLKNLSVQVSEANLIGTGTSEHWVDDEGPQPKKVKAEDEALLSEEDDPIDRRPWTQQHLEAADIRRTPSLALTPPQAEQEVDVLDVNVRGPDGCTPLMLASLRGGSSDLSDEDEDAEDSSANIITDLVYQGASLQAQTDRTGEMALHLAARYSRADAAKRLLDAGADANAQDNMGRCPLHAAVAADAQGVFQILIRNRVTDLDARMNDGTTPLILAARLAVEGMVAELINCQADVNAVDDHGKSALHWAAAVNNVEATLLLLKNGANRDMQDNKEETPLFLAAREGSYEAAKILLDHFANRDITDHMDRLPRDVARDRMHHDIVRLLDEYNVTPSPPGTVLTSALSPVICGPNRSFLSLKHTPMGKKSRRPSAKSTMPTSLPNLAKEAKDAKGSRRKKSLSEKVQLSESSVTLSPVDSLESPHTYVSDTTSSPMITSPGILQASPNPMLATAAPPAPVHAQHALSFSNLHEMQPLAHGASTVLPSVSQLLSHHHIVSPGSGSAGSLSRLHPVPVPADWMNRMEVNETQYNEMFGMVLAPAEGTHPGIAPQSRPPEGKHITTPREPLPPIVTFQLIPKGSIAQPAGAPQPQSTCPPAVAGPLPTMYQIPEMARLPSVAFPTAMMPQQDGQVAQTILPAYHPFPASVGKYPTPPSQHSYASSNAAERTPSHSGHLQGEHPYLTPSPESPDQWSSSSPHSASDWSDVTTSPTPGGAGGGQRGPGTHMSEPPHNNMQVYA
Test: Notch2 binders on small-molecule microarrays, primary screen, biochemical, small-molecule microarray, 635 nm fluorescence, stem cell growth factors (AID 1073)
Settings: Notch2 binding, higher = more signal
Values of composite z-score greater than or equal to -0.2 map to 1.0; values below map to 0.0.

Challenge: Item O=C1c2ccccc2[C@](Cc2ccccc2I)(C(=O)NC2CC2)[C@H](c2ccc(CO)cc2)N1Cc1ccccc1C(F)(F)F with composite z-score of -0.2 or above?
Response given: 0.0

Challenge: Item Cc1ccccc1C(O)C1C=CC2C(=O)N(c3ccccc3)C(=O)C2N1Nc1ccc([N+](=O)[O-])cc1 (stereo not drawn) with composite z-score of -0.2 or above?
Response given: 1.0

Challenge: Item CC1CC/C=C\[C@H]2OC34C=CCN(CCN5CCOCC5)C(=O)[C@H]3N(C(C)CO)C(=O)[C@@H]4C2C(=O)O1 (stereo partly drawn) with composite z-score of -0.2 or above?
Response given: 0.0

Challenge: Item C=CCNC(=O)[C@@H]1[C@H]2C(=O)O[C@H](c3ccccc3)[C@H](c3ccccc3)N2[C@H](c2ccc(O)cc2)[C@@]12C(=O)Nc1ccc(C#CCC(C(=O)OC)C(=O)OC)cc12 with composite z-score of -0.2 or above?
Response given: 1.0

Challenge: Item Cc1nc2cc(Br)ccc2c(=O)n1Cc1cccc(O)c1 with composite z-score of -0.2 or above?
Response given: 1.0

Challenge: Item O=C1C2C=CC(C(O)c3ccc4c(c3)OCO4)N(Nc3ccccc3)C2C(=O)N1c1ccccc1 (stereo not drawn) with composite z-score of -0.2 or above?
Response given: 1.0

Challenge: Item C=CCC(OC(C)=O)[C@@H]1[C@@H](N(Cc2ccc(-c3cccc(C(F)(F)F)c3)o2)C(=O)c2cccc3ccccc23)c2cc(OCCCO)ccc2N1C(=O)Cc1ccc(OC)cc1 (stereo partly drawn) with composite z-score of -0.2 or above?
Response given: 0.0

Challenge: Item Cc1c(NC(=O)/C(C#N)=C/c2ccccc2Cl)c(=O)n(-c2ccccc2)n1C with composite z-score of -0.2 or above?
Response given: 1.0

====

Target: Neurogenic locus notch homolog protein 3 (Homo sapiens)
Experiment: NOTCH3 binders on small-molecule microarray, primary screen, biochemical, 635/667 nm fluorescence (AID 1096)
Settings: NOTCH3 binding, 635 nm fluorescence, higher = more signal
ENDPOINT_LABEL: composite z-score

Challenge: Fill in the blank: the reported composite z-score of CC1CC/C=C\[C@H]2OC34C=CCN(C(C)(C)C)C(=O)[C@H]3N(C(CO)C(C)C)C(=O)[C@@H]4C2C(=O)O1 (stereo partly drawn) is ____.
Response given: 0.551

Challenge: Fill in the blank: the reported composite z-score of O=C1[C@@]23C=C(Br)[C@H](C[C@@H]2COC3)[C@@]12CO2 is ____.
Response given: 0.574

Challenge: Fill in the blank: the reported composite z-score of CC(C)N1CC=CC23O[C@@H]4/C=C\CCCOC(=O)C4[C@H]2C(=O)N(CCCCCCO)[C@@H]3C1=O (stereo partly drawn) is ____.
Response given: -0.112

Challenge: Fill in the blank: the reported composite z-score of C=C(COC)/C(=C/C[C@H](OC(C)=O)c1cccc(OCCO)c1)c1cnc2ccccc2c1 is ____.
Response given: 1.04

Challenge: Fill in the blank: the reported composite z-score of O=c1cccc(-c2ccco2)o1 is ____.
Response given: 0.832

Challenge: Fill in the blank: the reported composite z-score of COc1cc(NN2C(C(O)c3cc(OC)c(OC)c(OC)c3)C=CC3C(=O)N(c4ccccc4)C(=O)C32)cc(OC)c1OC (stereo not drawn) is ____.
Response given: 1.02

Challenge: Fill in the blank: the reported composite z-score of COc1ccc([Si](C)(C)[C@H]2[C@H](CC(=O)N3CCC[C@H]3CO)O[C@@]3(C(=O)N(Cc4ccc(N5CCC5=O)cc4)c4ccccc43)[C@@H]2C)cc1 is ____.
Response given: 1.07

Challenge: Fill in the blank: the reported composite z-score of C=CCN1C(=O)[C@]2(O[C@H](CCO)[C@@H]([Si](C)(C)c3ccc(OC)cc3)[C@@H]2C)c2cc(NC(=O)c3ccc(OC)cc3)ccc21 is ____.
Response given: 0.924
